Values compiled from paper PMC8400033.

Reported IC50 is given for each of the following compounds.
Tested on: SKOV3 (human ovarian carcinoma)
Test: CCK-8 antiproliferative assay, SKOV3 cell line
Conditions: Homo sapiens, SK-OV-3, read-out: IC50 SKOV3, SKOV3 cell line, CCK-8

Known results for compounds:
compound="O=C1C(Nc2ccc(Br)cc2)=CC(c2ccc(C(F)(F)F)cc2)N1c1ccc(Br)cc1 (centres unmarked) [8b]" measurement_target="SKOV3 (human ovarian carcinoma)" endpoint_value="> 50 µM"
compound="Cc1ccc(NC2=CC(C(C)C)N(c3ccc(C)cc3)C2=O)cc1 (centres unmarked) [4o]" measurement_target="SKOV3 (human ovarian carcinoma)" endpoint_value="> 50 µM"
compound="Cc1ccc(NC2=CC(CC(C)C)N(c3ccc(C)cc3)C2=O)cc1 (centres unmarked) [4p]" measurement_target="SKOV3 (human ovarian carcinoma)" endpoint_value="> 50 µM"
compound="Cc1ccc(NC2=C(Cc3ccccc3)C(c3ccc([N+](=O)[O-])cc3)N(c3ccc(C)cc3)C2=O)cc1 (centres unmarked) [5b]" measurement_target="SKOV3 (human ovarian carcinoma)" endpoint_value="> 50 µM"

Switching to the query record.
Exam item: Please look up its IC50: Cc1ccc(NC2=CC(c3ccc(F)cc3)N(c3ccc(C)cc3)C2=O)cc1 (centres unmarked) [4f]
Marked response: 23.5 µM

====

Tested on: SKOV3 (human ovarian carcinoma)
Test: CCK-8 antiproliferative assay, SKOV3 cell line
Conditions: Homo sapiens, SK-OV-3, read-out: IC50 SKOV3, SKOV3 cell line, CCK-8
Test Readout: IC50 (µM)
Kindly provide the numeric value in µM only, without the unit symbol.

Exam item: What value of IC50 has been reported for the following compound? Cc1ccc(NC2=CC(c3cccs3)N(c3ccc(C)cc3)C2=O)cc1 (centres unmarked)
Marked response: 12.7

Exam item: What value of measured IC50 is listed for Cc1ccc(NC2=CC(C)N(c3ccc(C)cc3)C2=O)cc1 (centres unmarked) ?
Marked response: 29.2

====

Test Readout: melting point

Exam item: Look up melting point for this compound: Cc1ccc(NC2=CC(CC(C)C)N(c3ccc(C)cc3)C2=O)cc1 (centres unmarked) [4p]
Marked response: 178 to 179 °C

Exam item: Fill blank: measured melting point of the compound CCOC(=O)C1(C)C=C(Nc2ccc(C)cc2)C(=O)N1c1ccc(C)cc1 (centres unmarked) [compound 16] is ____.
Marked response: 188 to 190 °C (dec.)

Exam item: # lookup: melting point of Cc1ccc(NC2=CC(c3ccc(C)cc3)N(c3ccc(C)cc3)C2=O)cc1 (centres unmarked) [4c]
Marked response: 210 to 213 °C

Exam item: What value of melting point has been reported for the following compound? O=C1C(Nc2cccc(C(F)(F)F)c2)=CCN1c1cccc(C(F)(F)F)c1 [11a]
Marked response: 160 to 162 °C

====

Readings of IC50 for the listed compounds
System: SKOV3 (human ovarian carcinoma)
Assay: CCK-8 antiproliferative assay, SKOV3 cell line
Conditions: Homo sapiens, SK-OV-3, read-out: IC50 SKOV3, SKOV3 cell line, CCK-8

Worked examples follow.
compound="Cc1ccc(NC2=CC(c3ccco3)N(c3ccc(C)cc3)C2=O)cc1 (stereo not drawn) [4k]" endpoint_value="> 50 µM"
compound="Cc1ccc(/N=C(/C=C/C=C/c2ccccc2)C(=O)Nc2ccc(C)cc2)cc1 [20a]" endpoint_value="> 50 µM"
compound="Cc1ccc(NC2=CC(c3ccccc3C)N(c3ccc(C)cc3)C2=O)cc1 (stereo not drawn) [4e]" endpoint_value="> 50 µM"
compound="Cc1ccc(NC2=CC(c3cccc(C)c3)N(c3ccc(C)cc3)C2=O)cc1 (stereo not drawn) [4d]" endpoint_value="> 50 µM"
compound="O=C1C(Nc2ccc(Cl)cc2)=CC(c2ccc([N+](=O)[O-])cc2)N1c1ccc(Cl)cc1 (stereo not drawn) [compound 7]" endpoint_value="> 50 µM"

Exam item: Please give the measured IC50 for this compound: O=C1C(Nc2cccc(Cl)c2)=CC(c2ccc([N+](=O)[O-])cc2)N1c1cccc(Cl)c1 (stereo not drawn) [compound 9]
Marked response: 16.1 µM

Exam item: Requested read-out: IC50. Entry: COc1ccc(NC2=CC(c3ccc([N+](=O)[O-])cc3)N(c3ccc(OC)cc3)C2=O)cc1 (stereo not drawn) [6b]
Marked response: > 50 µM

Exam item: Consider the compound shown here: Cc1ccc(NC2=CC(/C=C/c3ccccc3)N(c3ccc(C)cc3)C2=O)cc1 (stereo not drawn) [4r] What is its recorded IC50?
Marked response: ~10 µM

Exam item: // returns reported IC50 for input O=C1C(Nc2cccc(C(F)(F)F)c2)=CCN1c1cccc(C(F)(F)F)c1 [11a]
Marked response: > 50 µM

Exam item: I would be grateful if you could share the reported IC50 for Cc1ccc(/N=C2/C=C(c3ccccc3)N(c3ccc(C)cc3)C2=O)cc1 [compound 21] .
Marked response: 16.7 µM

Exam item: Look up IC50: O=C1C(Nc2cccc(C(F)(F)F)c2)=CC(c2ccc([N+](=O)[O-])cc2)N1c1cccc(C(F)(F)F)c1 (stereo not drawn) [11b]
Marked response: 8.5 µM

Exam item: Recorded IC50 of O=C1C(Nc2ccc3ccccc3n2)=CC(c2ccc([N+](=O)[O-])cc2)N1c1ccc2ccccc2n1 (stereo not drawn) [12a] , please.
Marked response: > 50 µM

Exam item: Can you look up the measured IC50 of O=C1C(Nc2ccccc2F)=CC(c2ccc([N+](=O)[O-])cc2)N1c1ccccc1F (stereo not drawn) [compound 10] for me?
Marked response: 5.55 µM
